These data points were gathered from patent US11371056B2.

# Test system: Pseudomonas fluorescens HPPD polypeptide (wild-type and mutants)
# Method Description: Coupled HPPD activity assay: turnover and residual turnover in crude HPPD polypeptide extracts with and without Cmpd. 1
# Assay type: biochemical
# Recorded Conditions: 100 μM Cmpd. 1, normalised to turnover without inhibitor
Measured Metric: Residual turnover [%] (%)
// note: answer is a bare numeric in %

[
  {
    "Molecule": "SEQ ID NO:25 (protein, mutant HPPD polypeptide) MADLYENPMGLMGFEFIEFASPTPGTLEPIFEIMGFTKVATHRSKNVHLYRQGEINLILNNEPNSIASYFAAEHGPSVCGMAFRVKDSQKAYNRALELGAQPIHIDTGPMELNLPAIKGIGGAPLYLIDRFGEGSSIYDIDFVYLEGVERNPVGAGLKVIDHLTHNVYRGRMVYWANFYEKLFNFREARYFDIKGEYTGLTSKAMSAPDGMIRIPLNEESSKGAGQIEEFLMQFNGEGIQHVAFLTDDLVKTWDALKKIGMRFMTAPGDEYYEMLEGRLPDHGEPVDQLQARGILLDGSSVEGDKRLLLQIFSETLMGPVFFEFIQRKGDDGFGPHSFKVLFESIERDQVRRGVLTAD",
    "Reported Result": 45
  }
]

Prompt: Give the reported Residual turnover [%] for this molecule. SEQ ID NO:64 (protein, mutant HPPD polypeptide) MADLYENPMGLMGFEFIEFASPTPGTLEPIFEIMGFTKVATHRSKNVHLYRQGEINLILNNEPNSIASYFAAEHGPSVCGMAFRVKDSQKAYNRALELGAQPIHIDTGPMELNLPAIKGIGGAPLYLIDRFGEGSSIYDIDFVYLEGVERNPVGAGLKVIDHLTHNVYRGRMVYWANFYEKLFNFREARYFDIKGEYTGLTSKAMSAPDGMIKIPLNEESSKGAGQIEEFLMQFNGEGIQHVAFLTDDLVKTWDALKKIGMRFLTAPGDEYYEMLEGRLPDHGEPVDQLQARGILLDGSSVEGDKRLLLQIFSEQLMGPVFFEFIQRKGDDGFGPHSFKVLFESMERDQVRRGVLTAD
Completion: 61
